- assayedTarget: PKMYT1 enzyme (Homo sapiens)
- Construct: purchased Thermo Scientific A33387
- procedureText: PKMYT1 enzyme inhibition activity, ADP-GLO method
- Type: biochemical
- conditionsUsed: PKMYT1 enzyme 10 nM, ATP 5 µM, 37°C 90 minutes; read-out: ADP-GLO IC50
pIC50: −log10 of the molar value.
Answer Not fulfilled if pIC50 is under 8, and Fulfilled if it is 8 or more.

IN: Say whether Cc1ccc(O)c(C)c1-n1c(N)c(C(N)=O)c2cnc(N(C)C)nc21 shows pIC50 of 8 or more.
OUT: Not fulfilled

IN: Say whether CCc1cc2c(C(N)=O)c(N)n(-c3c(C)cc(F)c(O)c3C)c2nc1C (atropisomer, axis not shown) [Example 143] shows pIC50 of 8 or more.
OUT: Not fulfilled

IN: Say whether Cc1ccc(O)c(C)c1-n1c(N)c(C(N)=O)c2c3c(c(C)nc21)OCC3 shows pIC50 of 8 or more.
OUT: Not fulfilled

IN: Say whether Cc1cc(F)c(O)c(C)c1-n1c(N)c(C(N)=O)c2cc(CC(C)C)c(C)nc21 (atropisomer, axis not shown) [Example 166.2] shows pIC50 of 8 or more.
OUT: Fulfilled

IN: Say whether Cc1nc2c(cc1-c1ncco1)c(C(N)=O)c(N)n2-c1c(C)c(O)cc(F)c1C shows pIC50 of 8 or more.
OUT: Fulfilled

* * *

- assayedTarget: PKMYT1 enzyme (Homo sapiens)
- Construct: purchased Thermo Scientific A33387
- procedureText: PKMYT1 enzyme inhibition activity, ADP-GLO method
- Type: biochemical
- conditionsUsed: PKMYT1 enzyme 10 nM, ATP 5 µM, 37°C 90 minutes; read-out: ADP-GLO IC50
testReadout: pIC50
Please report pIC50 as the negative decimal logarithm of the molar concentration, giving only the number.

The compound CCc1cc2c(C(N)=O)c(N)n(-c3c(C)c(O)cc(F)c3C)c2nc1C (atropisomer, axis not shown) [Example 132] , tested on PKMYT1 enzyme (Homo sapiens), showed pIC50 of 8.05

The compound C=Cc1cc2c(C(N)=O)c(N)n(-c3c(C)cc(F)c(O)c3C)c2nc1C (single isomer, unassigned) [Example 142.1] , tested on PKMYT1 enzyme (Homo sapiens), showed pIC50 of 8.00

The compound CCc1ncc2c(C(N)=O)c(N)n(-c3c(C)ccc(O)c3C)c2n1 , tested on PKMYT1 enzyme (Homo sapiens), showed pIC50 of 7.98

* * *

- assayedTarget: PKMYT1 enzyme (Homo sapiens, UniProt Q99640)
- Construct: purchased Thermo Scientific A33387
- Sequence (Q99640 1-499): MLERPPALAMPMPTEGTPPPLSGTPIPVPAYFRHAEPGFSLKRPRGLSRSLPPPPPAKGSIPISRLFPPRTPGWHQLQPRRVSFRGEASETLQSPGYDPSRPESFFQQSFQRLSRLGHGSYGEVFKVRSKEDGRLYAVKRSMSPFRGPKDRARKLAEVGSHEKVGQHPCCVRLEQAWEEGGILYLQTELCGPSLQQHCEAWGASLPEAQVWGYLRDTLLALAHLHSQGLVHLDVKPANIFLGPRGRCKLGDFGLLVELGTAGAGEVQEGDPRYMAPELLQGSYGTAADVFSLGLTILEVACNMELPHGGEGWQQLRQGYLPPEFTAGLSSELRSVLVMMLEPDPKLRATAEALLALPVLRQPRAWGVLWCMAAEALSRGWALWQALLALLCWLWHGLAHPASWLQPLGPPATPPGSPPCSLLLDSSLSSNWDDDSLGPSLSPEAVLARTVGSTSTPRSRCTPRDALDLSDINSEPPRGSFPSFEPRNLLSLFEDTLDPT
- procedureText: PKMYT1 enzyme inhibition activity, ADP-GLO method
- Assay type: biochemical
- conditionsUsed: PKMYT1 enzyme 10 nM, ATP 5 µM, 37°C 90 minutes; read-out: ADP-GLO IC50
testReadout: IC50 (µM)
Reply with just the number (in µM).

Summary for this molecule, Cc1ccc(O)c(C)c1-n1c(N)c(C(N)=O)c2cnc(C#CC(C)(C)O)nc21 [Example 26] : IC50 is 0.0113

Summary for this molecule, Cc1cnc2c(c1)c(C(N)=O)c(N)n2-c1c(C)c(O)cc(F)c1C [Example 89] : IC50 is 0.003

Summary for this molecule, Cc1nc2c(cc1F)c(C(N)=O)c(N)n2-c1c(C)c(O)cc(F)c1C [Example 105] : IC50 is 0.00243

Summary for this molecule, Cc1nc(C2CC2)c2c(C(N)=O)c(N)n(-c3c(C)ccc(O)c3C)c2n1 (racemic) [Example 62] : IC50 is 0.0169

Summary for this molecule, Cc1cc2c(C(N)=O)c(N)n(-c3c(C)c(O)cc(Cl)c3C)c2nc1C [Example 48] : IC50 is 0.0368

Summary for this molecule, Cc1cc2c(C(N)=O)c(N)n(-c3c(C)c(O)cc(F)c3C)c2c(F)c1C [Example 70] : IC50 is 0.034

Summary for this molecule, Cc1c(O)cc(F)c(C)c1-n1c(N)c(C(N)=O)c2cc(C3CCCCC3)cnc21 [Example 102] : IC50 is 0.0273

Summary for this molecule, C=Cc1cc2c(C(N)=O)c(N)n(-c3c(C)c(O)cc(F)c3C)c2nc1C (racemic) [Example 111] : IC50 is 0.00357

Summary for this molecule, Cc1ccc(O)c(C)c1-n1c(N)c(C(N)=O)c2cnc(CC(C)C)nc21 [Example 57] : IC50 is 0.00304

Summary for this molecule, Cc1cc2c(C(N)=O)c(N)n(-c3c(C)c(O)cc(F)c3C)c2nc1-c1ccccc1 [Example 137] : IC50 is 0.0362

Summary for this molecule, Cc1c(O)cc(F)c(C)c1-n1c(N)c(C(N)=O)c2cc(-c3ccnn3C)cnc21 (racemic) [Example 118] : IC50 is 0.0041

Summary for this molecule, Cc1cc(F)c(O)c(C)c1-n1c(N)c(C(N)=O)c2cc(OC(C)C)c(C)nc21 [Example 160] : IC50 is 0.00785

Summary for this molecule, C#Cc1cnc2c(c1)c(C(N)=O)c(N)n2-c1c(C)c(O)cc(F)c1C [Example 101] : IC50 is 0.0068

Summary for this molecule, Cc1ccc(O)c(C)c1-n1c(N)c(C(N)=O)c2cnc(Br)nc21 [Example 7] : IC50 is 0.00941

Summary for this molecule, Cc1cc(F)c(O)c(C)c1-n1c(N)c(C(N)=O)c2cc(Cl)c(C)nc21 (racemic) [Example 60] : IC50 is 0.00431

Summary for this molecule, Cc1cc(F)c(O)c(C)c1-n1c(N)c(C(N)=O)c2cc(C(C)C)cnc21 (racemic) [Example 170] : IC50 is 0.0181

Summary for this molecule, Cc1cc(F)c(O)c(C)c1-n1c(N)c(C(N)=O)c2cc(C(F)(F)F)cnc21 (racemic) [Example 154] : IC50 is 0.0139

Summary for this molecule, Cc1c(O)cc(F)c(C)c1-n1c(N)c(C(N)=O)c2cc(N3CCOCC3)cnc21 [Example 117] : IC50 is 0.192

Summary for this molecule, CCc1nc(C)nc2c1c(C(N)=O)c(N)n2-c1c(C)ccc(O)c1C (atropisomer, axis not shown) [Example 66.1] : IC50 is 0.0165

Summary for this molecule, Cc1cc(F)c(O)c(C)c1-n1c(N)c(C(N)=O)c2cc(Br)c(C)nc21 (atropisomer, axis not shown) [Example 58.1] : IC50 is 0.00308

Summary for this molecule, C=C(C)c1cnc2c(c1)c(C(N)=O)c(N)n2-c1c(C)cc(F)c(O)c1C [Example 155] : IC50 is 0.0232

Summary for this molecule, Cc1nc(Cl)c2c(C(N)=O)c(N)n(-c3c(C)ccc(O)c3C)c2n1 [Example 28] : IC50 is 0.0138
